The measured values listed here are drawn from ChEMBL document CHEMBL6074715.

test: Tmax in Sprague-Dawley rat at 5 mg/kg, iv measured upto 48 hrs by LC-MS/MS analysis; assay type: ADME, organism-based; conditions: in vivo
measurement_kind: Tmax (min)
Answers are plain numbers, in min.

(Q) State the recorded Tmax for this entry: O=C(Nc1ccc(Oc2ccnc(NC(=O)N3CC(O)C3)c2)c(F)c1)c1cn(-c2cccnc2)nn1
(A) 1.8

###

assay: Clearance in Sprague-Dawley rat at 5 mg/kg, iv measured upto 48 hrs by LC-MS/MS analysis; format: ADME, organism-based; conditions: in vivo
measurement_kind: clearance (mL/min/kg)
Numbers only, in mL/min/kg.

(Q) State the recorded clearance for this entry: O=C(Nc1ccc(Oc2ccnc(NC(=O)N3CC(O)C3)c2)c(F)c1)c1cn(-c2cccnc2)nn1
(A) 1.41

###

Can you tell me pIC50 for the items I'm about to list?
tested on: BaF3; assay: Antiproliferative activity against mouse BaF3 cells harbouring TEL-VEGFR2 assessed as inhibition of cell growth measured after 72 hrs by Celltiter-glo luminescent cell viability assay; assay type: functional, cell-based; conditions: BaF3, 72 h
One number for each entry, as −log10 of the molar value.

1. O=C(Nc1ccc(Oc2ccnc(NC(=O)N3CC(O)C3)c2)c(F)c1)c1cn(-c2ccc(I)cc2)nn1	5.32
2. O=C(Nc1ccc(Oc2ccnc(NC(=O)N3CC(O)C3)c2)c(F)c1)c1cn(-c2ccc(CN3CCOCC3)cc2)nn1	5.97
3. COc1ccc(-n2cc(C(=O)Nc3ccc(Oc4ccnc(NC(=O)N5CC(O)C5)c4)c(F)c3)nn2)cc1	5.33
4. CC1(O)CCN(C(=O)Nc2cc(Oc3ccc(NC(=O)c4cn(-c5cccnc5)nn4)cc3F)ccn2)C1 (centres undefined)	6.11
5. O=C(Nc1ccc(Oc2ccnc(NC(=O)N3CC(O)C3)c2)c(F)c1)c1cn(-c2ccccc2Cl)nn1	6.21

Respectfully, I request pIC50 for each entry included below.
1. O=C(Nc1ccc(Oc2ccnc(NC(=O)N3CC(O)C3)c2)c(F)c1)c1cn(-c2ccc(F)c(Cl)c2)nn1
2. O=C(Nc1ccc(Oc2ccnc(NC(=O)N3CCOCC3)c2)c(F)c1)c1cn(-c2cccc(F)c2)nn1

(A)
[6.10, 5.43]

###

assay: MRT (0 to t) in Sprague-Dawley rat at 20 mg/kg, po measured upto 48 hrs by LC-MS/MS analysis; format: ADME, organism-based; details: in vivo
measurement_kind: MRT last at 48 h (h)
Numbers only, in h.

(Q) State the recorded MRT last at 48 h for this entry: O=C(Nc1ccc(Oc2ccnc(NC(=O)N3CC(O)C3)c2)c(F)c1)c1cn(-c2cccnc2)nn1
(A) 4.49

###

assay: AUC (0 to infinity) in Sprague-Dawley rat at 5 mg/kg, iv measured upto 48 hrs by LC-MS/MS analysis; assay type: ADME, organism-based; conditions: in vivo
measurement_kind: AUC(0-inf) (ng·h/mL)
Answers are plain numbers, in ng·h/mL.

(Q) State the recorded AUC(0-inf) for this entry: O=C(Nc1ccc(Oc2ccnc(NC(=O)N3CC(O)C3)c2)c(F)c1)c1cn(-c2cccnc2)nn1
(A) 59400

###

assay: Oral bioavailability in Sprague-Dawley rat at 20 mg/kg measured upto 48 hrs by LC-MS/MS analysis; assay type: ADME, organism-based; conditions: in vivo
measurement_kind: bioavailability (%)
Numbers only, in %.

(Q) State the recorded bioavailability for this entry: O=C(Nc1ccc(Oc2ccnc(NC(=O)N3CC(O)C3)c2)c(F)c1)c1cn(-c2cccnc2)nn1
(A) 19.2

###

assay: Tmax in Sprague-Dawley rat at 20 mg/kg, po measured upto 48 hrs by LC-MS/MS analysis; format: ADME, organism-based; settings: in vivo
measurement_kind: Tmax (h)
Give bare numbers, in h.

(Q) State the recorded Tmax for this entry: O=C(Nc1ccc(Oc2ccnc(NC(=O)N3CC(O)C3)c2)c(F)c1)c1cn(-c2cccnc2)nn1
(A) 1.83

###

experiment: Half life in Sprague-Dawley rat at 5 mg/kg, iv measured upto 48 hrs by LC-MS/MS analysis; type: ADME, organism-based; settings: in vivo
measurement_kind: half-life
Phrase the answer as number then unit, nothing more needed.

(Q) State the recorded half-life for this entry: O=C(Nc1ccc(Oc2ccnc(NC(=O)N3CC(O)C3)c2)c(F)c1)c1cn(-c2cccnc2)nn1
(A) 2.46 h

###

test: AUC (0 to t) in Sprague-Dawley rat at 20 mg/kg, po measured upto 48 hrs by LC-MS/MS analysis; assay type: ADME, organism-based; conditions: in vivo
measurement_kind: AUC(0-t) at 48 h (ng·h/mL)
Give bare numbers, in ng·h/mL.

(Q) State the recorded AUC(0-t) at 48 h for this entry: O=C(Nc1ccc(Oc2ccnc(NC(=O)N3CC(O)C3)c2)c(F)c1)c1cn(-c2cccnc2)nn1
(A) 45600

###

assay: Cmax in Sprague-Dawley rat at 20 mg/kg, po measured upto 48 hrs by LC-MS/MS analysis; format: ADME, organism-based; conditions: in vivo
measurement_kind: Cmax (ng/mL)
Answers are plain numbers, in ng/mL.

(Q) State the recorded Cmax for this entry: O=C(Nc1ccc(Oc2ccnc(NC(=O)N3CC(O)C3)c2)c(F)c1)c1cn(-c2cccnc2)nn1
(A) 8020

###

assay: Half life in Sprague-Dawley rat at 20 mg/kg, po measured upto 48 hrs by LC-MS/MS analysis; format: ADME, organism-based; details: in vivo
measurement_kind: half-life (min)
Numbers only, in min.

(Q) State the recorded half-life for this entry: O=C(Nc1ccc(Oc2ccnc(NC(=O)N3CC(O)C3)c2)c(F)c1)c1cn(-c2cccnc2)nn1
(A) 214
